# STUDY TARGET: HLA-A*02:01 (Homo sapiens, UniProt P04439, D140Y/D185E/D98H/E176V/E277Q/G131W/G231S/I119V/I121R/I166T/I218V/L300P/L318F/N151K/N90K/P208A/P217A/Q86G/Q94H/R138H/R169H/T345S)
# PROTOCOL TEXT: MHC binding assay (UV-ligand exchange, beta2m ELISA)
# SETTINGS: binding to HLA-A*02:01, β2m ELISA
MEASURED METRIC: Peptide exchange (MHC class I binding score, peptide exchange yield)

Use the examples below as a reference point.
// query Peptide exchange (MHC class I binding score, peptide exchange yield) value for entry 110 (QIQGQVSEV; listed as Homo sapiens) [compound 110] ++ (≥20% = ++)

// query Peptide exchange (MHC class I binding score, peptide exchange yield) value for entry 83 (GLLENSPHL; listed as Homo sapiens) [compound 83] ++ (≥20% = ++)

// query Peptide exchange (MHC class I binding score, peptide exchange yield) value for entry 214 (ALFETLIQL; listed as Homo sapiens) [compound 214] +++ (≥50 = +++)

// query Peptide exchange (MHC class I binding score, peptide exchange yield) value for entry 203 (FLFVDPELV; listed as Homo sapiens) [compound 203] ++ (≥20% = ++)

// query Peptide exchange (MHC class I binding score, peptide exchange yield) value for entry 57 (TLYPGRFDYV; listed as Homo sapiens) [compound 57] ++ (≥20% = ++)

// query Peptide exchange (MHC class I binding score, peptide exchange yield) value for entry 21 (YLMDDFSSL; listed as Homo sapiens) [compound 21] +++ (≥50 = +++)

// query Peptide exchange (MHC class I binding score, peptide exchange yield) value for entry 258 (QLVQRVASV; listed as Homo sapiens) [compound 258] ++ (≥20% = ++)

// query Peptide exchange (MHC class I binding score, peptide exchange yield) value for entry 248 (VLMQDSRLYL; listed as Homo sapiens) [compound 248] +++ (≥50 = +++)

// query Peptide exchange (MHC class I binding score, peptide exchange yield) value for entry 237 (ALLEQTGDMSL; listed as Homo sapiens) [compound 237] +++ (≥50 = +++)

// query Peptide exchange (MHC class I binding score, peptide exchange yield) value for entry 143 (MLWESIMRV; listed as Homo sapiens) [compound 143] +++ (≥50 = +++)

More entries:
// query Peptide exchange (MHC class I binding score, peptide exchange yield) value for entry 154 (AIIKEIQTV; listed as Homo sapiens) [compound 154] ++ (≥20% = ++)

// query Peptide exchange (MHC class I binding score, peptide exchange yield) value for entry 89 (SLAETIFIV; listed as Homo sapiens) [compound 89] +++ (≥50 = +++)

// query Peptide exchange (MHC class I binding score, peptide exchange yield) value for entry 65 (SLSEKSPEV; listed as Homo sapiens) [compound 65] ++ (≥20% = ++)

// query Peptide exchange (MHC class I binding score, peptide exchange yield) value for entry 93 (RLYGYFHDA; listed as Homo sapiens) [compound 93] ++ (≥20% = ++)

// query Peptide exchange (MHC class I binding score, peptide exchange yield) value for entry 141 (NIDINNNEL; listed as Homo sapiens) [compound 141] ++ (≥20% = ++)

---

# STUDY TARGET: HLA-A*02:01 (Homo sapiens, UniProt P04439, D140Y/D185E/D98H/E176V/E277Q/G131W/G231S/I119V/I121R/I166T/I218V/L300P/L318F/N151K/N90K/P208A/P217A/Q86G/Q94H/R138H/R169H/T345S)
# PROTOCOL TEXT: MHC binding assay (UV-ligand exchange, beta2m ELISA)
# SETTINGS: binding to HLA-A*02:01, β2m ELISA
MEASURED METRIC: Peptide exchange (MHC class I binding score, peptide exchange yield)

Use the examples below as a reference point.
// query Peptide exchange (MHC class I binding score, peptide exchange yield) value for entry 113 (FLFLKEVKV; listed as Homo sapiens) [compound 113] ++ (≥20% = ++)

// query Peptide exchange (MHC class I binding score, peptide exchange yield) value for entry 284 (KLMDPGSLPPL; listed as Homo sapiens) [compound 284] ++ (≥20% = ++)

// query Peptide exchange (MHC class I binding score, peptide exchange yield) value for entry 29 (KMISAIPTL; listed as Homo sapiens) [compound 29] ++ (≥20% = ++)

// query Peptide exchange (MHC class I binding score, peptide exchange yield) value for entry 174 (ALYSGDLHAA; listed as Homo sapiens) [compound 174] ++ (≥20% = ++)

More entries:
// query Peptide exchange (MHC class I binding score, peptide exchange yield) value for entry 69 (LKVLKADVVL; listed as Homo sapiens) [compound 69] ++ (≥20% = ++)

// query Peptide exchange (MHC class I binding score, peptide exchange yield) value for entry 137 (KLIYKDLVSV; listed as Homo sapiens) [compound 137] ++ (≥20% = ++)

---

# STUDY TARGET: HLA-A*02:01 (Homo sapiens, UniProt P04439, D140Y/D185E/D98H/E176V/E277Q/G131W/G231S/I119V/I121R/I166T/I218V/L300P/L318F/N151K/N90K/P208A/P217A/Q86G/Q94H/R138H/R169H/T345S)
# PROTOCOL TEXT: MHC binding assay (UV-ligand exchange, beta2m ELISA)
# SETTINGS: binding to HLA-A*02:01, β2m ELISA
# Source text: Candidate peptides for T cell based therapies according to the present invention were further tested for their MHC binding capacity (affinity). The individual peptide-MHC complexes were produced by UV-ligand exchange, where a UV-sensitive peptide is cleaved upon UV-irradiation, and exchanged with the peptide of interest as analyzed. Only peptide candidates that can effectively bind and stabilize the peptide-receptive MHC molecules prevent dissociation of the MHC complexes. […]
MEASURED METRIC: Peptide exchange (MHC class I binding score, peptide exchange yield)

Use the examples below as a reference point.
// query Peptide exchange (MHC class I binding score, peptide exchange yield) value for entry 128 (SILTNISEV; listed as Homo sapiens) [compound 128] ++ (≥20% = ++)

// query Peptide exchange (MHC class I binding score, peptide exchange yield) value for entry 246 (ALAGIVTNV; listed as Homo sapiens) [compound 246] +++ (≥50 = +++)

// query Peptide exchange (MHC class I binding score, peptide exchange yield) value for entry 223 (ALHPVQFYL; listed as Homo sapiens) [compound 223] +++ (≥50 = +++)

// query Peptide exchange (MHC class I binding score, peptide exchange yield) value for entry 14 (YTFSGDVQL; listed as Homo sapiens) [compound 14] +++ (≥50 = +++)

More entries:
// query Peptide exchange (MHC class I binding score, peptide exchange yield) value for entry 224 (LLFDWSGTGRADA; listed as Homo sapiens) [compound 224] +++ (≥50 = +++)

// query Peptide exchange (MHC class I binding score, peptide exchange yield) value for entry 12 (RLLDPKTIFL; listed as Homo sapiens) [compound 12] +++ (≥50 = +++)

// query Peptide exchange (MHC class I binding score, peptide exchange yield) value for entry 23 (ALLSPLSLA; listed as Homo sapiens) [compound 23] +++ (≥50 = +++)

// query Peptide exchange (MHC class I binding score, peptide exchange yield) value for entry 208 (HLNNDRNPL; listed as Homo sapiens) [compound 208] ++ (≥20% = ++)

// query Peptide exchange (MHC class I binding score, peptide exchange yield) value for entry 35 (VIIKGLEEI; listed as Homo sapiens) [compound 35] ++ (≥20% = ++)

// query Peptide exchange (MHC class I binding score, peptide exchange yield) value for entry 67 (FLIENLLAA; listed as Homo sapiens) [compound 67] +++ (≥50 = +++)

// query Peptide exchange (MHC class I binding score, peptide exchange yield) value for entry 183 (ALSYILPYL; listed as Homo sapiens) [compound 183] +++ (≥50 = +++)

// query Peptide exchange (MHC class I binding score, peptide exchange yield) value for entry 249 (YLYQILQGI; listed as Homo sapiens) [compound 249] +++ (≥50 = +++)

// query Peptide exchange (MHC class I binding score, peptide exchange yield) value for entry 4 (VLFGELPAL; listed as Homo sapiens) [compound 4] +++ (≥50 = +++)

// query Peptide exchange (MHC class I binding score, peptide exchange yield) value for entry 260 (ALNESLVEC; listed as Homo sapiens) [compound 260] +++ (≥50 = +++)

// query Peptide exchange (MHC class I binding score, peptide exchange yield) value for entry 252 (SLMEKNQSL; listed as Homo sapiens) [compound 252] ++ (≥20% = ++)

// query Peptide exchange (MHC class I binding score, peptide exchange yield) value for entry 40 (KIWEELSVLEV; listed as Homo sapiens) [compound 40] +++ (≥50 = +++)

// query Peptide exchange (MHC class I binding score, peptide exchange yield) value for entry 274 (TLYNPERTITV; listed as Homo sapiens) [compound 274] +++ (≥50 = +++)

// query Peptide exchange (MHC class I binding score, peptide exchange yield) value for entry 90 (AILNVDEKNQV; listed as Homo sapiens) [compound 90] ++ (≥20% = ++)

// query Peptide exchange (MHC class I binding score, peptide exchange yield) value for entry 97 (KLFEKSTGL; listed as Homo sapiens) [compound 97] +++ (≥50 = +++)

// query Peptide exchange (MHC class I binding score, peptide exchange yield) value for entry 256 (FLNDIFERI; listed as Homo sapiens) [compound 256] +++ (≥50 = +++)

// query Peptide exchange (MHC class I binding score, peptide exchange yield) value for entry 3 (RVIDDSLVVGV; listed as Homo sapiens) [compound 3] +++ (≥50 = +++)
